Molecular target: FGFR4 (Homo sapiens)
Assay: biochemical
Assay type: biochemical
attribute-measured: FGFR4-SI

[[record]]
smiles_code = "O=C1Nc2ccc(-c3ccc(C(=O)N4CCCCC4)cc3)cc2/C1=C\\c1ccc(N2CCOCC2)cc1"
attribute_measured = "FGFR4-SI"
readout_value = 141.176

[[record]]
smiles_code = "CN1CCN(c2ccc(/C=C3/C(=O)Nc4ccc(-c5ccc(C(=O)N6CCCC6)cc5)cc43)cc2)CC1"
attribute_measured = "FGFR4-SI"
readout_value = 295.505

[[record]]
smiles_code = "O=C1Nc2ccc(-c3ccc(C(=O)N4CCCC4)cc3)cc2/C1=C\\c1ccc(N2CCOCC2)cc1"
attribute_measured = "FGFR4-SI"
readout_value = 16.785

[[record]]
smiles_code = "CN1CCN(c2ccc(/C=C3/C(=O)Nc4ccc(-c5ccc6cc(O)ccc6c5)cc43)cc2)CC1"
attribute_measured = "FGFR4-SI"
readout_value = 1285.449

[[record]]
smiles_code = "O=C1Nc2ccc(-c3ccc(-c4ccc(O)cc4)cc3)cc2/C1=C\\c1ccc(N2CCOCC2)cc1"
attribute_measured = "FGFR4-SI"
readout_value = 2514.228

[[record]]
smiles_code = "O=CN1CCN(c2ccc(/C=C3/C(=O)Nc4ccc(-c5ccc(-c6ccc(O)cc6)cc5)cc43)cc2)CC1"
attribute_measured = "FGFR4-SI"
readout_value = 24.028

[[record]]
smiles_code = "O=C1Nc2ccc(-c3ccc(C(=O)N4CCCC4)cc3)cc2/C1=C\\c1ccc(N2CCC(O)CC2)cc1"
attribute_measured = "FGFR4-SI"
readout_value = 217.749


----------
Tested on: FGFR3
Assay: biochemical
Assay type: biochemical
attribute-measured: FGFR3-SI

[[record]]
smiles_code = "O=C1Nc2ccc(-c3ccc(C(=O)N4CCCC4)cc3)cc2/C1=C\\c1ccc(N2CCOCC2)cc1"
readout_value = 22.297

[[record]]
smiles_code = "O=C1Nc2ccc(-c3ccc4cc(O)ccc4c3)cc2/C1=C\\c1ccc(N2CCOCC2)cc1"
readout_value = 238.648

[[record]]
smiles_code = "CN1CCN(c2ccc(/C=C3/C(=O)Nc4ccc(-c5ccc6cc(O)ccc6c5)cc43)cc2)CC1"
readout_value = 2442.824

[[record]]
smiles_code = "O=CN1CCN(c2ccc(/C=C3/C(=O)Nc4ccc(-c5ccc(C(=O)N6CCCC6)cc5)cc43)cc2)CC1"
readout_value = 2.880

[[record]]
smiles_code = "O=CN1CCN(c2ccc(/C=C3/C(=O)Nc4ccc(-c5ccc(-c6ccc(O)cc6)cc5)cc43)cc2)CC1"
readout_value = 1.14


----------
Target: FGFR3 (Homo sapiens, UniProt P22607)
Sequence (P22607 23-806): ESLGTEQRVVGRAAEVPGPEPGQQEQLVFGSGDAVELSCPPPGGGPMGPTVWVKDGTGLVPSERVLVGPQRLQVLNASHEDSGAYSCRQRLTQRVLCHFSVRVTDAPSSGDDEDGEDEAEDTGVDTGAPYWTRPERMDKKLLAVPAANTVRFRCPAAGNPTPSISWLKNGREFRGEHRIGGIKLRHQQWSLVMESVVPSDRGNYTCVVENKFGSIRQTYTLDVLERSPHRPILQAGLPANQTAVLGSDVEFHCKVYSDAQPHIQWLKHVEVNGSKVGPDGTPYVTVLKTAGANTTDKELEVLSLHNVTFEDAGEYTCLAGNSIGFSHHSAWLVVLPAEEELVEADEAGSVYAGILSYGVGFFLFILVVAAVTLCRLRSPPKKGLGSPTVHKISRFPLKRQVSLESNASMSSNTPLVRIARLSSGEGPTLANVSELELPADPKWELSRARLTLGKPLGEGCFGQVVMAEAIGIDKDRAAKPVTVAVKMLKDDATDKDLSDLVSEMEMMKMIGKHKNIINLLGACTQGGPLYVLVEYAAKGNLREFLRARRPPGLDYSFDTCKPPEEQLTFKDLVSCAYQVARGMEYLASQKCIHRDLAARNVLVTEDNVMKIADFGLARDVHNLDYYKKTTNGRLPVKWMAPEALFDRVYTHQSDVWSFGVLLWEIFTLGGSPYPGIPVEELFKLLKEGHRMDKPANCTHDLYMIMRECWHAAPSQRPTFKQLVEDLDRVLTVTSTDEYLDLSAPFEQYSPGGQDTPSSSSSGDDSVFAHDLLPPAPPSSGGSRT
Test: biochemical
Type: biochemical
Details: FGFR3-IC50
pIC50: −log10 of the molar value.
// reported pIC50 for each item listed
attribute-measured: pIC50

[[record]]
smiles_code = "O=C1Nc2ccc(-c3ccc(C(=O)N4CCCCC4)cc3)cc2/C1=C\\c1ccc(N2CCOCC2)cc1"
target_entity = "FGFR3 (Homo sapiens, UniProt P22607)"
attribute_measured = "pIC50"
readout_value = 6.71

[[record]]
smiles_code = "CN1CCN(c2ccc(/C=C3/C(=O)Nc4ccc(-c5ccc(C(=O)N6CCCC6)cc5)cc43)cc2)CC1"
target_entity = "FGFR3 (Homo sapiens, UniProt P22607)"
attribute_measured = "pIC50"
readout_value = 6.81

[[record]]
smiles_code = "O=CN1CCN(c2ccc(/C=C3/C(=O)Nc4ccc(-c5ccc6cc(O)ccc6c5)cc43)cc2)CC1"
target_entity = "FGFR3 (Homo sapiens, UniProt P22607)"
attribute_measured = "pIC50"
readout_value = 5.96

[[record]]
smiles_code = "O=CN1CCN(c2ccc(/C=C3/C(=O)Nc4ccc(-c5ccc(C(=O)N6CCCC6)cc5)cc43)cc2)CC1"
target_entity = "FGFR3 (Homo sapiens, UniProt P22607)"
attribute_measured = "pIC50"
readout_value = 6.71

[[record]]
smiles_code = "O=C1Nc2ccc(-c3ccc(C(=O)N4CCOCC4)cc3)cc2/C1=C\\c1ccc(N2CCOCC2)cc1"
target_entity = "FGFR3 (Homo sapiens, UniProt P22607)"
attribute_measured = "pIC50"
readout_value = 7.28

[[record]]
smiles_code = "CN1CCN(C(=O)c2ccc(-c3ccc4c(c3)/C(=C\\c3ccc(N5CCC(O)CC5)cc3)C(=O)N4)cc2)CC1"
target_entity = "FGFR3 (Homo sapiens, UniProt P22607)"
attribute_measured = "pIC50"
readout_value = 6.98

[[record]]
smiles_code = "O=C1Nc2ccc(-c3ccc(C(=O)N4CCCCC4)cc3)cc2/C1=C\\c1ccc(N2CCC(O)CC2)cc1"
target_entity = "FGFR3 (Homo sapiens, UniProt P22607)"
attribute_measured = "pIC50"
readout_value = 7.76


----------
Test system: FGFR1
Assay: Z'-LYTE kinase enzyme inhibition assay, FGFR1
Format: biochemical
Details: among FGFR1-4
attribute-measured: FGFR selectivity (in words)

[[record]]
compound = "CN1CCN(c2ccc(/C=C3/C(=O)Nc4ccc(-c5ccc(C(=O)N6CCCC6)cc5)cc43)cc2)CC1 [Compound A18]"
attribute_measured = "FGFR selectivity (in words)"
readout_value = "selectivity to FGFR1"

[[record]]
compound = "CN1CCN(c2ccc(/C=C3/C(=O)Nc4ccc(-c5ccc6cc(O)ccc6c5)cc43)cc2)CC1 [Compound A13]"
attribute_measured = "FGFR selectivity (in words)"
readout_value = "selectivity to FGFR1"

[[record]]
compound = "O=C1Nc2ccc(-c3ccc(C(=O)N4CCCC4)cc3)cc2/C1=C\\c1ccc(N2CCOCC2)cc1 [Compound A6]"
attribute_measured = "FGFR selectivity (in words)"
readout_value = "selectivity to FGFR1"


----------
Tested on: FGFR1
Assay: Z'-LYTE kinase enzyme inhibition assay, FGFR1
Type: biochemical
Conditions: selectivity index IC50/IC50, lowest IC50 of the compound = 1
# binarize FGFR1-SI: threshold 2 inclusive, high side T, low side F

[[record]]
molecule = "CN1CCN(C(=O)c2ccc(-c3ccc4c(c3)/C(=C\\c3ccc(N5CCC(O)CC5)cc3)C(=O)N4)cc2)CC1 [Compound A11]"
target_entity = "FGFR1"
discrete_label = "F"

[[record]]
molecule = "O=C1Nc2ccc(-c3ccc(C(=O)N4CCCC4)cc3)cc2/C1=C\\c1ccc(N2CCC(O)CC2)cc1 [Compound A12]"
target_entity = "FGFR1"
discrete_label = "T"

[[record]]
molecule = "O=CN1CCN(c2ccc(/C=C3/C(=O)Nc4ccc(-c5ccc(C(=O)N6CCCCC6)cc5)cc43)cc2)CC1 [Compound A28]"
target_entity = "FGFR1"
discrete_label = "T"

[[record]]
molecule = "CN1CCN(c2ccc(/C=C3/C(=O)Nc4ccc(-c5ccc(C(=O)N6CCCC6)cc5)cc43)cc2)CC1 [Compound A18]"
target_entity = "FGFR1"
discrete_label = "F"

[[record]]
molecule = "O=C1Nc2ccc(-c3ccc(C(=O)N4CCCCC4)cc3)cc2/C1=C\\c1ccc(N2CCOCC2)cc1 [Compound A4]"
target_entity = "FGFR1"
discrete_label = "F"

[[record]]
molecule = "CN1CCN(c2ccc(/C=C3/C(=O)Nc4ccc(-c5ccc(C(=O)N6CCCCC6)cc5)cc43)cc2)CC1 [Compound A16]"
target_entity = "FGFR1"
discrete_label = "T"

[[record]]
molecule = "O=C1Nc2ccc(-c3ccc4cc(O)ccc4c3)cc2/C1=C\\c1ccc(N2CCOCC2)cc1 [Compound A1]"
target_entity = "FGFR1"
discrete_label = "T"

[[record]]
molecule = "O=C1Nc2ccc(-c3ccc(C(=O)N4CCOCC4)cc3)cc2/C1=C\\c1ccc(N2CCC(O)CC2)cc1 [Compound A9]"
target_entity = "FGFR1"
discrete_label = "T"

[[record]]
molecule = "O=C1Nc2ccc(-c3ccc(C(=O)N4CCCC4)cc3)cc2/C1=C\\c1ccc(N2CCOCC2)cc1 [Compound A6]"
target_entity = "FGFR1"
discrete_label = "F"

[[record]]
molecule = "CN1CCN(c2ccc(/C=C3/C(=O)Nc4ccc(-c5ccc6cc(O)ccc6c5)cc43)cc2)CC1 [Compound A13]"
target_entity = "FGFR1"
discrete_label = "F"

[[record]]
molecule = "CN1CCN(c2ccc(/C=C3/C(=O)Nc4ccc(-c5ccc(C(=O)N6CCOCC6)cc5)cc43)cc2)CC1 [Compound A15]"
target_entity = "FGFR1"
discrete_label = "F"

[[record]]
molecule = "O=CN1CCN(c2ccc(/C=C3/C(=O)Nc4ccc(-c5ccc(C(=O)N6CCOCC6)cc5)cc43)cc2)CC1 [Compound A27]"
target_entity = "FGFR1"
discrete_label = "F"

[[record]]
molecule = "O=C1Nc2ccc(-c3ccc(-c4ccc(O)cc4)cc3)cc2/C1=C\\c1ccc(N2CCOCC2)cc1 [Compound A2]"
target_entity = "FGFR1"
discrete_label = "T"


----------
Biological target: FGFR4 (Homo sapiens, UniProt P22455)
Sequence (P22455 22-802): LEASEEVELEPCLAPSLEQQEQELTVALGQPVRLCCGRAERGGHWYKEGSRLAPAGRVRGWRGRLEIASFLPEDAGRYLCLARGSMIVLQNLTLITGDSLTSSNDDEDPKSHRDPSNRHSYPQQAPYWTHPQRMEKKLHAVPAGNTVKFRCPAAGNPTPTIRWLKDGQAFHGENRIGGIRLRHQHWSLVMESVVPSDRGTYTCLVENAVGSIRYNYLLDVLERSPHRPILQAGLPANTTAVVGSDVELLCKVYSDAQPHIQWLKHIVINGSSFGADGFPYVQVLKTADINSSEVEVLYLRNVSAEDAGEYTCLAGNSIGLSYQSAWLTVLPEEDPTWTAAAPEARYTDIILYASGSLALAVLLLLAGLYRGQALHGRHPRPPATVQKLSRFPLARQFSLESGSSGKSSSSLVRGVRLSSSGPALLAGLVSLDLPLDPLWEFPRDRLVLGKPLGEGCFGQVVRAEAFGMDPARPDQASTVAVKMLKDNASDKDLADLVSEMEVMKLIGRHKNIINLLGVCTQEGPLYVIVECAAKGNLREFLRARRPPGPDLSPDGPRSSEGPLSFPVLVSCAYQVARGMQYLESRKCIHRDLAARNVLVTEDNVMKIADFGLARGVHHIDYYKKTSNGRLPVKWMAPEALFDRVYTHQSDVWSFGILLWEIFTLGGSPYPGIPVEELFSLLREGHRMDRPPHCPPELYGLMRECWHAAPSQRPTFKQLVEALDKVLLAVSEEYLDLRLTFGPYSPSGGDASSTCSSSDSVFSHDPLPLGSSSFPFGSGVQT
Assay: biochemical
Format: biochemical
// reported FGFR4-SI for each item listed
attribute-measured: FGFR4-SI

[[record]]
compound = "CN1CCN(C(=O)c2ccc(-c3ccc4c(c3)/C(=C\\c3ccc(N5CCC(O)CC5)cc3)C(=O)N4)cc2)CC1 [Compound A11]"
attribute_measured = "FGFR4-SI"
readout_value = 191.383

[[record]]
compound = "O=C1Nc2ccc(-c3ccc4cc(O)ccc4c3)cc2/C1=C\\c1ccc(N2CCOCC2)cc1 [Compound A1]"
attribute_measured = "FGFR4-SI"
readout_value = 6247.898

[[record]]
compound = "O=C1Nc2ccc(-c3ccc(C(=O)N4CCCCC4)cc3)cc2/C1=C\\c1ccc(N2CCC(O)CC2)cc1 [Compound A10]"
attribute_measured = "FGFR4-SI"
readout_value = 1343.587

[[record]]
compound = "O=CN1CCN(c2ccc(/C=C3/C(=O)Nc4ccc(-c5ccc6cc(O)ccc6c5)cc43)cc2)CC1 [Compound A25]"
attribute_measured = "FGFR4-SI"
readout_value = 5.641

[[record]]
compound = "CN1CCN(C(=O)c2ccc(-c3ccc4c(c3)/C(=C\\c3ccc(N5CCN(C)CC5)cc3)C(=O)N4)cc2)CC1 [Compound A17]"
attribute_measured = "FGFR4-SI"
readout_value = 542.643

[[record]]
compound = "CN1CCN(c2ccc(/C=C3/C(=O)Nc4ccc(-c5ccc(C(=O)N6CCCCC6)cc5)cc43)cc2)CC1 [Compound A16]"
attribute_measured = "FGFR4-SI"
readout_value = 1054.660

[[record]]
compound = "CN1CCN(c2ccc(/C=C3/C(=O)Nc4ccc(-c5ccc(C(=O)N6CCOCC6)cc5)cc43)cc2)CC1 [Compound A15]"
attribute_measured = "FGFR4-SI"
readout_value = 382.588

